system: Mycobacterium tuberculosis; experiment: Antimycobacterial activity against Mycobacterium tuberculosis H37Rv 331/88 after 14 days by microdilution method; type: functional; conditions: H37Rv 331/88, 336 h
Each entry below carries its reported MIC.
observed.property: MIC (µM)

>>> df
                                   molecule  observed_value
0  O=C(Oc1ccc(Cl)cc1C(=O)Nc1ccc(C(F)(F)F)cc1)c1ccccc1             0.5
1       O=C(Nc1ccc(Cl)c(Cl)c1)c1cc(Cl)ccc1O               4
2  O=C(Oc1ccc(Cl)cc1C(=O)Nc1ccc(Cl)c(Cl)c1)c1ccc([N+](=O)[O-])cc1             0.5
3  O=C(Oc1ccc(Cl)cc1C(=O)Nc1ccc(Cl)c(Cl)c1)c1ccccc1               1
4  O=C(Oc1ccc(Br)cc1C(=O)Nc1ccc(C(F)(F)F)cc1)c1ccccc1               1
5     O=C(Nc1ccc(C(F)(F)F)cc1)c1cc(Cl)ccc1O               2
6  Cc1ccc(C(=O)Oc2ccc(Cl)cc2C(=O)Nc2ccc(Cl)c(Cl)c2)cc1               1
7               NNC(=O)c1ccncc1 [ISONIAZID]             0.5
8  Nc1ccc(C(=O)O)c(O)c1 [AMINOSALICYLIC ACID]            62.5
9  O=C(Oc1ccc(Br)cc1C(=O)Nc1ccc(C(F)(F)F)cc1)c1ccc(C(F)(F)F)cc1               1

---

system: Mycobacterium kansasii; test: Antimycobacterial activity against Mycobacterium kansasii 235/80 after 21 days by microdilution method; assay type: functional; conditions: 235/80, 504 h
observed.property: MIC (µM)

In [3]: df
Out[3]:
                            chemical_string  unit_label  observed_value
0  Cc1ccc(C(=O)Oc2ccc(Cl)cc2C(=O)Nc2ccc(C(F)(F)F)cc2)cc1          µM               2
1  O=C(Oc1ccc(Cl)cc1C(=O)Nc1ccc(C(F)(F)F)cc1)c1ccc(C(F)(F)F)cc1          µM               4
2  Cc1ccc(C(=O)Oc2ccc(Cl)cc2C(=O)Nc2ccc(Cl)c(Cl)c2)cc1          µM               2
3  O=C(Oc1ccc(Br)cc1C(=O)Nc1ccc(C(F)(F)F)cc1)c1ccc(Br)cc1          µM               4
4  O=C(Oc1ccc(Cl)cc1C(=O)Nc1ccc(Cl)c(Cl)c1)c1ccc(Br)cc1          µM               4

---

The entries below come with measured MIC values attached.
system: Mycobacterium kansasii; test: Antimycobacterial activity against Mycobacterium kansasii 235/80 after 21 days by microdilution method; format: functional; conditions: 235/80, 504 h
observed.property: MIC (µM)

>>> df
                             chemical_string  unit_label  op  observed_value
 0  O=C(Oc1ccc(Br)cc1C(=O)Nc1ccc(C(F)(F)F)cc1)c1ccccc1          µM   =               2
 1  O=C(Oc1ccc(Cl)cc1C(=O)Nc1ccc(C(F)(F)F)cc1)c1ccc(Br)cc1          µM   =               1
 2                           NNC(=O)c1ccncc1          µM   >             250
 3       O=C(Nc1ccc(Cl)c(Cl)c1)c1cc(Cl)ccc1O          µM   =               8
 4     O=C(Nc1ccc(C(F)(F)F)cc1)c1cc(Cl)ccc1O          µM   =               2
 5  O=C(Oc1ccc(Br)cc1C(=O)Nc1ccc(C(F)(F)F)cc1)c1ccc(C(F)(F)F)cc1          µM   =               4
 6  Cc1ccc(C(=O)Oc2ccc(Br)cc2C(=O)Nc2ccc(C(F)(F)F)cc2)cc1          µM   =               2
 7  O=C(Oc1ccc(Cl)cc1C(=O)Nc1ccc(Cl)c(Cl)c1)c1ccc(C(F)(F)F)cc1          µM   =               4
 8                      Nc1ccc(C(=O)O)c(O)c1          µM   >            1000
 9  O=C(Oc1ccc(Cl)cc1C(=O)Nc1ccc(C(F)(F)F)cc1)c1ccccc1          µM   =               1
10  O=C(Oc1ccc(Cl)cc1C(=O)Nc1ccc(Cl)c(Cl)c1)c1ccccc1          µM   =               4
11  O=C(Oc1ccc(Br)cc1C(=O)Nc1ccc(C(F)(F)F)cc1)c1ccc([N+](=O)[O-])cc1          µM   =               1
12  O=C(Oc1ccc(Cl)cc1C(=O)Nc1ccc(Cl)c(Cl)c1)c1ccc([N+](=O)[O-])cc1          µM   =               4
13  O=C(Oc1ccc(Cl)cc1C(=O)Nc1ccc(C(F)(F)F)cc1)c1ccc([N+](=O)[O-])cc1          µM   =               4
14     O=C(Nc1ccc(C(F)(F)F)cc1)c1cc(Br)ccc1O          µM   =               4

---

tested on: Staphylococcus aureus; assay: Antibacterial activity against Staphylococcus aureus CCM 4516/08 after 24 hrs by broth microdilution method; assay type: functional; details: CCM 4516/08, 24 h
Bridge positions count the residues as written; N and C are the ends. Square brackets hold non-standard residues; d marks the D form. Peptide text beside a SMILES is read from it. * marks the point of attachment. Ileψ(thiazoline)Cys = CC[C@H](C)[C@H](N)C1=N[C@H](C(=O)*)CS1; dOrn = NCCC[C@@H](N)C(=O)O
observed.property: MIC (µM)

compound	op	observed.value
Cc1ccc(C(=O)Oc2ccc(Cl)cc2C(=O)Nc2ccc(C(F)(F)F)cc2)cc1	>	250
Cc1ccc(C(=O)Oc2ccc(Br)cc2C(=O)Nc2ccc(C(F)(F)F)cc2)cc1	>	125
O=C(Oc1ccc(Cl)cc1C(=O)Nc1ccc(Cl)c(Cl)c1)c1ccc([N+](=O)[O-])cc1	=	0.49
O=C(Oc1ccc(Cl)cc1C(=O)Nc1ccc(Cl)c(Cl)c1)c1ccc(Br)cc1	=	0.49
CC[C@H](C)[C@H](N)C1=N[C@H](C(=O)N[C@@H](CC(C)C)C(=O)N[C@H](CCC(=O)O)C(=O)N[C@H](C(=O)N[C@H]2CCCCNC(=O)[C@H](CC(N)=O)NC(=O)[C@@H](CC(=O)O)NC(=O)[C@H](Cc3cnc[nH]3)NC(=O)[C@@H](Cc3ccccc3)NC(=O)[C@H]([C@@H](C)CC)NC(=O)[C@@H](CCCN)NC2=O)[C@@H](C)CC)CS1 [BACITRACIN] ({Ileψ(thiazoline)Cys}-L[dE]IK[dOrn]I[dF]H[dD]N; lactam 4-C)	=	7.81
CC1(C)S[C@@H]2[C@H](NC(=O)Cc3ccccc3)C(=O)N2[C@H]1C(=O)O [PENICILLIN G]	=	0.98

---

Listed here are molecules together with their documented MIC.
system: Staphylococcus epidermidis; test: Antibacterial activity against Staphylococcus epidermidis H 6966/08 after 48 hrs by broth microdilution method; assay type: functional; conditions: H 6966/08, 48 h
Bridge positions count the residues as written; N and C are the ends. Square brackets hold non-standard residues; d marks the D form. Peptide text beside a SMILES is read from it. * marks the point of attachment. Ileψ(thiazoline)Cys = CC[C@H](C)[C@H](N)C1=N[C@H](C(=O)*)CS1; dOrn = NCCC[C@@H](N)C(=O)O
observed.property: MIC (µM)

molecule	op	observed.value
Cc1ccc(C(=O)Oc2ccc(Cl)cc2C(=O)Nc2ccc(C(F)(F)F)cc2)cc1	>	250
O=C(Oc1ccc(Cl)cc1C(=O)Nc1ccc(Cl)c(Cl)c1)c1ccc([N+](=O)[O-])cc1	=	0.49
O=C(Oc1ccc(Cl)cc1C(=O)Nc1ccc(Cl)c(Cl)c1)c1ccc(Br)cc1	=	0.49
CC1(C)S[C@@H]2[C@H](NC(=O)Cc3ccccc3)C(=O)N2[C@H]1C(=O)O	=	250
Cc1ccc(C(=O)Oc2ccc(Br)cc2C(=O)Nc2ccc(C(F)(F)F)cc2)cc1	>	125
CC[C@H](C)[C@H](N)C1=N[C@H](C(=O)N[C@@H](CC(C)C)C(=O)N[C@H](CCC(=O)O)C(=O)N[C@H](C(=O)N[C@H]2CCCCNC(=O)[C@H](CC(N)=O)NC(=O)[C@@H](CC(=O)O)NC(=O)[C@H](Cc3cnc[nH]3)NC(=O)[C@@H](Cc3ccccc3)NC(=O)[C@H]([C@@H](C)CC)NC(=O)[C@@H](CCCN)NC2=O)[C@@H](C)CC)CS1 [BACITRACIN] ({Ileψ(thiazoline)Cys}-L[dE]IK[dOrn]I[dF]H[dD]N; lactam 4-C)	=	31.2
